- system.tested: KRas G12D (Homo sapiens (Human), UniProt P01116, G12D)
- assay.info: KRas G12D Surface Plasmon Resonance (SPR) Binding Assay
- test.settings: Biacore T200, immobilized biotinylated KRAS protein, 1:1 binding model
- Sequence (P01116-2 other isoform, or with tags, fused parts or gaps G12D): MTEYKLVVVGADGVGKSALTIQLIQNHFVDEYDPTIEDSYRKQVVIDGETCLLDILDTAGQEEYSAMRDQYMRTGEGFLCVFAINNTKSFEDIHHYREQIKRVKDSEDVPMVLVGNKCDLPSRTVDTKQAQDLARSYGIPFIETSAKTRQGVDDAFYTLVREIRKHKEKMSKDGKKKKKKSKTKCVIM
value.kind: pKd
// pKd here means minus log10 of the molar concentration (mol/L)

compound: Oc1cc(-c2ncc3c(N4C[C@H]5CC[C@@H](C4)N5)nc(N4CCC4)nc3c2F)c2ccccc2c1 [Example 119, 2,2,2-trifluoroacetate]
pKd: 6.29

**Query** State the recorded pKd for this entry: `Oc1cc(-c2ncc3c(N4C[C@H]5CC[C@@H](C4)N5)nc(OCCC(F)(F)F)nc3c2F)c2ccccc2c1`
**Result** 6.49

====

- system.tested: KRas G12D (Homo sapiens (Human), UniProt P01116, G12D)
- assay.info: KRas G12D Surface Plasmon Resonance (SPR) Binding Assay
- test.settings: Biacore T200, immobilized biotinylated KRAS protein, 1:1 binding model
value.kind: pKd
// pKd here means minus log10 of the molar concentration (mol/L)

**Query** API: value(readout= pKd, system= KRas G12D (Homo sapiens (Human), UniProt P01116, G12D), query= `CCCOc1nc(N2C[C@H]3CC[C@@H](C2)N3)c2cnc(-c3cc(O)cc4ccccc34)c(F)c2n1` )
**Result** 6.29

**Query** API: value(readout= pKd, system= KRas G12D (Homo sapiens (Human), UniProt P01116, G12D), query= `CO[C@@H]1C[C@@H](COc2nc(N3C[C@H]4CC[C@@H](C3)N4)c3cnc(-c4cc(O)cc5ccccc45)c(F)c3n2)N(C)C1` )
**Result** 8.25

====

- system.tested: KRas G12D (Homo sapiens (Human), UniProt P01116, G12D)
- assay.info: KRas G12D Binding Assay (TR-FRET displacement of Cy5 labelled tracer)
- test.settings: GDP-loaded KRAS G12D (amino acids 1:169), 60 minute incubation at 22° C.
- Sequence (P01116 other isoform, or with tags, fused parts or gaps G12D): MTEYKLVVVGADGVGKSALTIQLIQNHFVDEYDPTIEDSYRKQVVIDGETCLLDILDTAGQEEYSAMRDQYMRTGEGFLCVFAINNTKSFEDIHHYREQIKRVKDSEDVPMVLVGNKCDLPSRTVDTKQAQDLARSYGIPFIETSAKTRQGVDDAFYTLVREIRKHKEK
value.kind: IC50 (nM)
Answer with a number only, understood to be in nM.

Worked examples, 5 compounds total:
compound: Oc1cc(-c2ncc3c(N4C[C@H]5CC[C@@H](C4)N5)nc(N4CC5(CCOC5)C4)nc3c2F)c2ccccc2c1
value.kind: IC50
unit.string: nM
value.observed: 131
--
compound: Cc1cccc2cccc(-c3ncc4c(N5C[C@H]6CC[C@@H](C5)N6)nc(OC[C@@H]5CCCN5C)nc4c3F)c12
value.kind: IC50
unit.string: nM
value.observed: 260
--
compound: CC(C)c1c(F)cccc1-c1ncc2c(N3C[C@H]4CC[C@@H](C3)N4)nc(OCC34CCCN3CCC4)nc2c1F
value.kind: IC50
unit.string: nM
value.observed: 132
--
compound: Fc1c(-c2ccccc2C(F)(F)F)ncc2c(N3C[C@H]4CC[C@@H](C3)N4)nc(OCC34CCCN3CCC4)nc12
value.kind: IC50
unit.string: nM
value.observed: 86.1
--
compound: Fc1ccc2cccc(-c3ncc4c(N5C[C@H]6CC[C@@H](C5)N6)nc(OCCc5cccnc5)nc4c3F)c2c1
value.kind: IC50
unit.string: nM
value.observed: 4490

**Query** State the recorded IC50 for this entry: `OC[C@H](O)COc1nc(N2C[C@H]3CC[C@@H](C2)N3)c2cnc(-c3cccc4cccc(Cl)c34)c(F)c2n1`
**Result** 6130

**Query** State the recorded IC50 for this entry: Oc1cc(-c2ncc3c(N4C[C@H]5CC[C@@H](C4)N5)nc(N4CCCC4)nc3c2F)c2ccccc2c1 [Example 118, 2,2,2-trifluoroacetate]
**Result** 477

====

- system.tested: KRas G12D (Homo sapiens (Human), UniProt P01116, G12D)
- assay.info: KRas G12D Binding Assay (TR-FRET displacement of Cy5 labelled tracer)
- test.settings: GDP-loaded KRAS G12D (amino acids 1:169), 60 minute incubation at 22° C.
Rule for this label: t means IC50 is less than 0.2 µM; f means IC50 is at least 0.2 µM.

Consider the following illustrative entries.
compound: O[C@@H]1C[C@@H]2CN(c3nc(OCC45CCCN4CCC5)nc4c(F)c(-c5cccc6cccc(Cl)c56)ncc34)C[C@H]1N2 [Example 49]
class: t

compound: Fc1c(-c2c(C(F)(F)F)ccc3[nH]ncc23)ncc2c(N3C[C@H]4CC[C@@H](C3)N4)nc(OCC34CCCN3CCC4)nc12 [Example 344]
class: t

compound: Oc1cc(-c2ncc3c(N4C[C@H]5CC[C@@H](C4)N5)nc(OCC45CCCN4CCC5)nc3c2F)c2c(Cl)c(F)ccc2c1 [Example 245]
class: t

**Query** Dear reviewer, please state whether Cc1ccc2cccc(-c3ncc4c(N5C[C@H]6CC[C@@H](C5)N6)nc(OC[C@@H]5CCCN5C)nc4c3F)c2c1 [Example 321] has IC50 strictly beneath 0.2 µM.
**Result** f

====

- system.tested: KRas G12D (Homo sapiens (Human), UniProt P01116, G12D)
- assay.info: KRas G12D Binding Assay (TR-FRET displacement of Cy5 labelled tracer)
- test.settings: GDP-loaded KRAS G12D (amino acids 1:169), 60 minute incubation at 22° C.
value.kind: IC50 (nM)
Answer with a number only, understood to be in nM.

Worked examples, 3 molecules total:
molecule: CN(C)CCOc1nc(N2C[C@H]3CC[C@@H](C2)N3)c2cnc(-c3cc(O)cc4ccccc34)c(F)c2n1 [Example 18]
IC50 (nM): 76.8

molecule: CN1CCC[C@H]1COc1nc(N2C[C@H]3CC[C@@H](C2)N3)c2cnc(-c3cccc4cccc(C#CCO)c34)c(F)c2n1 [Example 194]
IC50 (nM): 151

molecule: C#Cc1cccc2cc(O)cc(-c3ncc4c(N5C[C@H]6CC[C@@H](C5)N6)nc(OCC56CCCN5CCC6)nc4c3F)c12 [Example 185]
IC50 (nM): 0.3

**Query** API: value(readout= IC50, system= KRas G12D (Homo sapiens (Human), UniProt P01116, G12D), query= Fc1c(-c2cccc3c2C(C2CC2)CC3)ncc2c(N3CC4CCC(C3)N4)nc(OC[C@@]34CCCN3C[C@H](F)C4)nc12 (stereo partly shown) [Example 437] )
**Result** 234

====

Each entry below carries its recorded pIC50.
- system.tested: KRas G12D (Homo sapiens (Human), UniProt P01116, G12D)
- assay.info: KRas G12D Binding Assay (TR-FRET displacement of Cy5 labelled tracer)
- test.settings: GDP-loaded KRAS G12D (amino acids 1:169), 60 minute incubation at 22° C.
// pIC50 here means minus log10 of the molar concentration (mol/L)

Worked examples, 2 compounds total:
query.smiles: CCCOc1nc(N2C[C@H]3CC[C@@H](C2)N3)c2cnc(-c3cc(O)cc4ccccc34)c(F)c2n1
value.observed: 6.58

query.smiles: Oc1cc(-c2ncc3c(N4C[C@H]5CC[C@@H](C4)N5)nc(OCCCN4C[C@@H]5C[C@H]4CO5)nc3c2F)c2ccccc2c1
value.observed: 8.10

**Query** State the recorded pIC50 for this entry: `Cc1cccc2cccc(-c3ncc4c(N5C[C@H]6CC[C@@H](C5)N6)nc(OCC56CCCN5CCC6)nc4c3F)c12`
**Result** 8.00

====

- system.tested: KRas G12D (Homo sapiens (Human), UniProt P01116, G12D)
- assay.info: KRas G12D Surface Plasmon Resonance (SPR) Binding Assay
- test.settings: Biacore T200, immobilized biotinylated KRAS protein, 1:1 binding model
pKd: −log10 of the molar value.
Answer False if pKd is under 6, and True if it is 6 or more.

**Query** Is pKd for `CCN1CCC[C@H]1COc1nc(N2C[C@H]3CC[C@@H](C2)N3)c2cnc(-c3cc(O)cc4ccccc34)c(F)c2n1` at or above 6?
**Result** True

====

- system.tested: KRas G12D (Homo sapiens (Human), UniProt P01116, G12D)
- assay.info: KRas G12D Binding Assay (TR-FRET displacement of Cy5 labelled tracer)
- test.settings: GDP-loaded KRAS G12D (amino acids 1:169), 60 minute incubation at 22° C.
- Protocol: After a 60 minute incubation at 22° C., the reaction was measured using a PerkinElmer EnVision multimode plate reader via TR-FRET dual wavelength detection, and the percent of control (POC) calculated using a ratiometric emission factor. […] The POC values were fit to a 4-parameter logistic curve and the IC50 value was determined as the concentration where the curve crosses 50 POC. ND stands for “not determined.”
Each entry below carries its recorded IC50.
Answer with a number only, understood to be in nM.

Worked examples, 2 compounds total:
compound: Cc1nccn1CCOc1nc(N2CC3CCC(C2)N3)c2cnc(-c3cc(O)cc4ccccc34)c(F)c2n1 [Example 84]
system.tested: KRas G12D (Homo sapiens (Human), UniProt P01116, G12D)
value.kind: IC50
unit.string: nM
value.observed: 31.7

compound: COCCCOc1nc(N2C[C@H]3CC[C@@H](C2)N3)c2cnc(-c3cc(O)cc4ccccc34)c(F)c2n1 [Example 68]
system.tested: KRas G12D (Homo sapiens (Human), UniProt P01116, G12D)
value.kind: IC50
unit.string: nM
value.observed: 257

**Query** State the recorded IC50 for this entry: Fc1c(-c2ccccc2[C@@H]2C[C@H]2F)ncc2c(N3C[C@H]4CC[C@@H](C3)N4)nc(OCC34CCCN3CCC4)nc12 (relative stereo) [Example 285]
**Result** 279

**Query** State the recorded IC50 for this entry: Oc1cc(-c2ncc3c(N4C[C@H]5CC[C@@H](C4)N5)nc(OC[C@@]45CCCN4C[C@H](F)C5)nc3c2F)c2c(F)cccc2c1 [Example 282]
**Result** 0.7

**Query** State the recorded IC50 for this entry: Fc1ccc2cccc(-c3ncc4c(N5CC6CCC(C5)N6)nc(OC[C@@]56CCCN5C[C@H](F)C6)nc4c3F)c2c1Cl (racemic) [Example 336]
**Result** 3.1

**Query** State the recorded IC50 for this entry: Oc1cc(-c2ncc3c(N4C[C@H]5CC[C@@H](C4)N5)nc(OCCCN4CCOCC4)nc3c2F)c2ccccc2c1 [Example 22]
**Result** 50.3
